TEST: Cmax in rat at 1 mg/kg, po
Format: ADME, organism-based
Parameters: dose 1 mg/kg, route oral
RUN PARAMETERS: in vivo
EXPERIMENTAL ENDPOINT: Cmax (ng/mL)

Sample records with Cmax:
SMILES STR | Cmax / ng/mL
Cc1ccc(CCCC(=O)c2ccc(COC[C@@](C)(N)CO)c(C)c2)cc1.Cl | 34
Cc1ccc(CCCC(=O)c2ccc(COC[C@@](C)(N)COP(=O)(O)O)c(C)c2)cc1 | 104
Cc1ccc(CCCC(=O)c2ccc(COC[C@@](C)(N)COP(=O)(O)O)c(Cl)c2)cc1 | 97
Cc1ccc(CCCC(=O)c2ccc(COC[C@@](C)(N)CO)cc2)cc1.Cl | 13

1 = Cc1ccc(CCCC(=O)c2ccc(COC[C@@](C)(N)CO)c(Cl)c2)cc1.Cl
2 = Cc1ccc(CCCC(=O)c2ccc(COC[C@@](C)(N)COP(=O)(O)O)cc2)cc1
// returns 1 or 2 , whichever has the lower Cmax Kindly state the label of the option you pick.
1
(1: 18 ng/mL, 2: 72 ng/mL)

====

TEST: Drug metabolism in rat plasma assessed as compound phosphorylation at 100 ug/ml at 37 degC after 3 hrs by HPLC method
Type: ADME, cell-free
RUN PARAMETERS: read-out: Drug metabolism
EXPERIMENTAL ENDPOINT: metabolised at 3 h, 100 ug/ml (%)

Sample records with metabolised at 3 h, 100 ug/ml:
SMILES STR | metabolised at 3 h, 100 ug/ml [%]
Cc1ccc(CCCC(=O)c2ccc(COC[C@@](C)(N)CO)c(C)c2)cc1.Cl | 38.4
Cc1ccc(CCCC(=O)c2ccc(COC[C@@](C)(N)CO)cc2)cc1.Cl | 39.5

a = CCc1cc(C(=O)CCCc2ccc(C)cc2)ccc1COC[C@@](C)(N)CO
b = Cc1ccc(CCCC(=O)c2ccc(COC[C@@](C)(N)CO)c(Cl)c2)cc1.Cl
c = Cc1ccc(CCCC(=O)c2cc(C)c(COC[C@@](C)(N)CO)cc2C)cc1
Provide the items ranked by increasing metabolised at 3 h, 100 ug/ml. Please write the labels in the order that was asked for.
c, a, b

====

Test system: Rattus norvegicus
TEST: Immunosuppressive activity in Lewis rat injected with WKAH/Hkm rat spleen cells assessed as inhibition of host versus graft reaction by measuring popliteal lymph nodes weight dosed orally at 5 mL/kg once daily for 4 successive days starting on day of spleen cell injection
Format: functional
RUN PARAMETERS: po, read-out: ID50 (the source's name)
EXPERIMENTAL ENDPOINT: ED50 (mg/kg)
Expressed in mg/kg, but write only the number.

SMILES STR | TEST SYSTEM | UNITS | ED50
Cc1ccc(CCCC(=O)c2ccc(COC[C@@](C)(N)CO)cc2)cc1.Cl | Rattus norvegicus | mg/kg | 0.27
CCCCCCCCc1ccc(CCC(N)(CO)CO)cc1 | Rattus norvegicus | mg/kg | 0.33
Cc1ccc(CCCC(=O)c2ccc(COC[C@@](C)(N)CO)c(C)c2)cc1.Cl | Rattus norvegicus | mg/kg | 0.43

Turning to the following compound.
response.value for Cc1ccc(CCCC(=O)c2ccc(COC[C@@](C)(N)CO)c(Cl)c2)cc1.Cl (field: ED50) = 0.39

====

TEST SYSTEM: UniProt:P21453
Sequence (P21453 whole entry): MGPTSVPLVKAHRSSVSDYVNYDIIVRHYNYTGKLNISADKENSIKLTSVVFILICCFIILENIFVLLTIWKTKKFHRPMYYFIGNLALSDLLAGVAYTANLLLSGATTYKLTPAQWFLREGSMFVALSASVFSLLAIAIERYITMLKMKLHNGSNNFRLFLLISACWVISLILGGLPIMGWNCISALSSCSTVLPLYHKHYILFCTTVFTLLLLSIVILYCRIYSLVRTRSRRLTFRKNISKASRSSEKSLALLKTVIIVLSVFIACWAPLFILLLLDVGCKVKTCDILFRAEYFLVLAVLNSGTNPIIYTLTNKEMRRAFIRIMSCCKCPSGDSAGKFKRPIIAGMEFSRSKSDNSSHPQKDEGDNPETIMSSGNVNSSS
TEST: Agonist activity at human S1P1 receptor expressed in CHOK1 cell membranes by [35S]GTPgammaS binding assay
Format: functional, CHO-K1
EXPERIMENTAL ENDPOINT: EC50 (nM)

SMILES STR | EXPERIMENTAL ENDPOINT | UNITS | NUMERIC RESULT
CCc1cc(C(=O)CCCc2ccc(C)cc2)ccc1COC[C@@](C)(N)COP(=O)(O)O | EC50 | nM | 2.3
Cc1ccc(CCCC(=O)c2ccc(COC[C@@](C)(N)COP(=O)(O)O)cc2)cc1 | EC50 | nM | 7
Cc1ccc(CCCC(=O)c2ccc(COC[C@@](C)(N)COP(=O)(O)O)c(F)c2)cc1 | EC50 | nM | 2.8
Cc1ccc(CCCC(=O)c2ccc(COC[C@@](C)(N)COP(=O)(O)O)c(C)c2)cc1 | EC50 | nM | 3

1 = Cc1ccc(CCCC(=O)c2cc(C)c(COC[C@@](C)(N)COP(=O)(O)O)cc2C)cc1
2 = Cc1ccc(CCCC(=O)c2ccc(COC[C@@](C)(N)COP(=O)(O)O)c(Cl)c2)cc1
3 = Cc1ccc(CCCC(=O)c2cc(C)c(COC[C@@](C)(N)COP(=O)(O)O)c(C)c2)cc1
4 = Cc1ccc(CCCC(=O)c2ccc(COC[C@@](C)(N)COP(=O)(O)O)cc2C)cc1
Provide the items ranked by increasing EC50. Please write the labels in the order that was asked for.
3, 2, 1, 4
(3: 2.2 nM, 2: 4 nM, 1: 6.5 nM, 4: 19 nM)

====

Species on record: Homo sapiens
TEST: Selectivity index, ratio of EC50 for human S1P3 receptor to EC50 for human S1P1 receptor
EXPERIMENTAL ENDPOINT: Ratio EC50

Sample records with Ratio EC50:
SMILES STR | NUMERIC RESULT
Cc1ccc(CCCC(=O)c2ccc(COC[C@@](C)(N)COP(=O)(O)O)c(C)c2)cc1 | 60
Cc1ccc(CCCC(=O)c2ccc(COC[C@@](C)(N)COP(=O)(O)O)c(F)c2)cc1 | 21

I = Cc1ccc(CCCC(=O)c2cc(C)c(COC[C@@](C)(N)COP(=O)(O)O)c(C)c2)cc1
II = CCc1cc(C(=O)CCCc2ccc(C)cc2)ccc1COC[C@@](C)(N)COP(=O)(O)O
III = Cc1ccc(CCCC(=O)c2ccc(COC[C@@](C)(N)COP(=O)(O)O)cc2)cc1
IV = Cc1ccc(CCCC(=O)c2ccc(COC[C@@](C)(N)COP(=O)(O)O)c(Cl)c2)cc1
Provide the items ranked by increasing Ratio EC50. Please write the labels in the order that was asked for.
III, IV, I, II
(III: 29, IV: 55, I: 155, II: 5220)

====

TEST: Metabolic stability in rat hepatic microsomes assessed as parent compound remaining after 30 mins at 37 degC
Assay type: ADME, microsome
RUN PARAMETERS: liver microsomes
EXPERIMENTAL ENDPOINT: remaining at 0.5 h (%)

SMILES STR | NUMERIC RESULT
Cc1ccc(CCCC(=O)c2ccc(COC[C@@](C)(N)COP(=O)(O)O)cc2)cc1 | 92
Cc1ccc(CCCC(=O)c2ccc(COC[C@@](C)(N)CO)cc2)cc1.Cl | 51
Cc1ccc(CCCC(=O)c2ccc(COC[C@@](C)(N)CO)c(C)c2)cc1.Cl | 36

A = Cc1ccc(CCCC(=O)c2ccc(COC[C@@](C)(N)COP(=O)(O)O)c(Cl)c2)cc1
B = Cc1ccc(CCCC(=O)c2ccc(COC[C@@](C)(N)CO)c(Cl)c2)cc1.Cl
Exercise: compare A and B ; which one has the greater remaining at 0.5 h? Kindly state the label of the option you pick.
A
(A: 86%, B: 38%)

====

TEST: Half life in Lewis rat at 1 mg/kg, po
Assay type: ADME, organism-based
Design: dose 1 mg/kg, route oral
RUN PARAMETERS: in vivo
EXPERIMENTAL ENDPOINT: half-life (h)

I = Cc1ccc(CCCC(=O)c2ccc(COC[C@@](C)(N)CO)cc2)cc1.Cl
II = CCCCCCCCc1ccc(CCC(N)(CO)CO)cc1 [FINGOLIMOD]
Exercise: compare I and II ; which one has the greater half-life? Kindly state the label of the option you pick.
II
(II: 32 h, I: 7.8 h)

====

TEST: Half life in rat at 1 mg/kg, po
Assay type: ADME, organism-based
Parameters: dose 1 mg/kg, route oral
RUN PARAMETERS: in vivo
EXPERIMENTAL ENDPOINT: half-life (h)

I = Cc1ccc(CCCC(=O)c2ccc(COC[C@@](C)(N)COP(=O)(O)O)cc2)cc1
II = Cc1ccc(CCCC(=O)c2ccc(COC[C@@](C)(N)CO)c(Cl)c2)cc1.Cl
// returns I or II , whichever has the lower half-life Kindly state the label of the option you pick.
II

====

TEST: AUC (0 to 48 hrs) in rat at 1 mg/kg, po
Format: ADME, organism-based
Parameters: time < 48 hr, dose 1 mg/kg, route oral
RUN PARAMETERS: plasma
EXPERIMENTAL ENDPOINT: AUC(0-t) at 48 h (ng·h/mL)

Sample records with AUC(0-t) at 48 h:
SMILES STR | AUC(0-t) at 48 h / ng·h/mL
Cc1ccc(CCCC(=O)c2ccc(COC[C@@](C)(N)COP(=O)(O)O)c(C)c2)cc1 | 806
Cc1ccc(CCCC(=O)c2ccc(COC[C@@](C)(N)COP(=O)(O)O)cc2)cc1 | 799
Cc1ccc(CCCC(=O)c2ccc(COC[C@@](C)(N)CO)cc2)cc1.Cl | 120

a = Cc1ccc(CCCC(=O)c2ccc(COC[C@@](C)(N)CO)c(C)c2)cc1.Cl
b = Cc1ccc(CCCC(=O)c2ccc(COC[C@@](C)(N)COP(=O)(O)O)c(Cl)c2)cc1
// returns a or b , whichever has the lower AUC(0-t) at 48 h Kindly state the label of the option you pick.
a
